For each of the molecules below, state its inhibition at 1 µM.
Target: c-Src kinase (Homo sapiens, UniProt P12931)
Construct: purchased Millipore (KinaseProfiler Service) / Reaction Biology Corp. (Kinase Hotspot)
Sequence (P12931 whole entry): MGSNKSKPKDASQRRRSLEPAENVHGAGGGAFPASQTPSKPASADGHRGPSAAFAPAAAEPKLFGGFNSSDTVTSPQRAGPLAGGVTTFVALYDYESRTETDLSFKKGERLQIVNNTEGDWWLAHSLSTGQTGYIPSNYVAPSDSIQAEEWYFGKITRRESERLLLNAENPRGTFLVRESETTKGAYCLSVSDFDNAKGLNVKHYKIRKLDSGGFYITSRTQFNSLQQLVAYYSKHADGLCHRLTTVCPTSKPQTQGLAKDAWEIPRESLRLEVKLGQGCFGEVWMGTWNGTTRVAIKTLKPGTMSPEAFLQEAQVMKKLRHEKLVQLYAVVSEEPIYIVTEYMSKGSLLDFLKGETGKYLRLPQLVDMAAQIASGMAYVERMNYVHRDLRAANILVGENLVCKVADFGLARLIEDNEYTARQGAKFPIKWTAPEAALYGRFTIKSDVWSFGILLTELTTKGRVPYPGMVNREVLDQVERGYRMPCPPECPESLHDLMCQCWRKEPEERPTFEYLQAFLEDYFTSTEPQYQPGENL
Test: c-Src kinase assay (KinaseProfiler / Kinase Hotspot)
Type: biochemical
Conditions: compound at 1 μM; read-out: % Inhibition @1 μM cSrc

Lookup: Return reported inhibition at 1 µM; argument: Cc1cc(Nc2nc(/C=C/c3cccc(Cl)c3)nc(N3CCN(C)CC3)n2)n[nH]1 [Example 11]
Found: 50 to 90%

Lookup: I'd like to know its inhibition at 1 µM. The molecule in question is Cc1cc(Nc2nc(/C=C\c3ccccc3)nc(N3CCN(C)CC3)n2)n[nH]1 [Example 4]
Found: < 50%

Lookup: I am curious: what inhibition at 1 µM value has been reported for Cc1ccc(/C=C/c2nc(Nc3cc(C)[nH]n3)nc(N3CCN(C)CC3)n2)cc1 [Example 9] ?
Found: < 50%

Lookup: Returns the measured inhibition at 1 µM for the input molecule. Input: Cc1cc(Nc2nc(/C=C/c3ccccc3Cl)nc(N3CCN(C)CC3)n2)n[nH]1 [Example 10]
Found: 50 to 90%

Lookup: What measured inhibition at 1 µM goes with CN1CCN(c2nc(/C=C/c3ccccc3)nc(Nc3cc(-c4ccccc4)[nH]n3)n2)CC1 [Example 18] ?
Found: 50 to 90%

Lookup: Quick one: inhibition at 1 µM of Cc1cc(Nc2nc(C#Cc3ccccc3)nc(N3CCN(C)CC3)n2)n[nH]1 [Example 3] ?
Found: < 50%

Lookup: Consider the molecule Cc1cc(Nc2nc(/C=C/c3nccs3)nc(N3CCN(C)CC3)n2)n[nH]1 [Example 12] and give its measured inhibition at 1 µM.
Found: 50 to 90%

Lookup: Reported inhibition at 1 µM, molecule C/C=C/c1cc(Nc2nc(/C=C/c3ccccc3)nc(N3CCN(C)CC3)n2)n[nH]1 [Example 19] : ____
Found: > 90%

Lookup: # input molecule: Cc1cc(Nc2nc(/C=C/c3ccccc3)nc(N3CCN(C)CC3)n2)n[nH]1 [Example 7] ; wanted: its inhibition at 1 µM
Found: 50 to 90%

Lookup: Given the entry Cc1cnc(Nc2nc(/C=C/c3ccccc3)nc(N3CCN(C)CC3)n2)s1 [Example 17] , report its measured inhibition at 1 µM.
Found: 50 to 90%

Lookup: Fill blank: measured inhibition at 1 µM of the molecule Cc1cc(Nc2nc(/C=C/c3ccc(Cl)cc3)nc(N3CCN(C)CC3)n2)n[nH]1 [Example 8] is ____.
Found: 50 to 90%

====

Target: TrkA Kinase (Homo sapiens)
Construct: purchased Millipore (KinaseProfiler Service) / Reaction Biology Corp. (Kinase Hotspot)
Sequence (P04629 33-796): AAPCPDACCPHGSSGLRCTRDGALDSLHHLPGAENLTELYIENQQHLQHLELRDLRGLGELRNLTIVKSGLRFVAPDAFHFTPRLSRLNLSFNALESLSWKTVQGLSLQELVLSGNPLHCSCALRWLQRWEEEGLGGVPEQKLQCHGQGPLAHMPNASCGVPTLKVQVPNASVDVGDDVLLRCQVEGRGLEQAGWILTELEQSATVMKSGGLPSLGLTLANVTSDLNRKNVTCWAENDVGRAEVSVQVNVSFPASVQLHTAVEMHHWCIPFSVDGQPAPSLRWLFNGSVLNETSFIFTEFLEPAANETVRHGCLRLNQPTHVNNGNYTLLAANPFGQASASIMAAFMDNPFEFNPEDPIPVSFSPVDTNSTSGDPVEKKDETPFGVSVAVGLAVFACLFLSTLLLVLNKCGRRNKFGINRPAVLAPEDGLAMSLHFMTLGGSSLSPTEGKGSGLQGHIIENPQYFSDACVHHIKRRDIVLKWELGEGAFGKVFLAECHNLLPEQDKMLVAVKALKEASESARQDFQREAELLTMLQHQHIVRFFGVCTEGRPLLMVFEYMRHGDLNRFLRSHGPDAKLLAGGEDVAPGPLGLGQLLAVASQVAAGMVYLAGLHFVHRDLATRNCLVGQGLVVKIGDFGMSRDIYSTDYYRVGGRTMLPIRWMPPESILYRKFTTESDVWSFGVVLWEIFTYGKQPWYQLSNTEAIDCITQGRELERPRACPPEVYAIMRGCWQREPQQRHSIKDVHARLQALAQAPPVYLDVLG
Assay: TrkA kinase assay (KinaseProfiler / Kinase Hotspot)
Format: biochemical
Settings: compound at 1 μM
I'd appreciate it if you could supply inhibition at 1 µM values for the items below.

Lookup: # value lookup — system TrkA Kinase (Homo sapiens), readout inhibition at 1 µM, item Cc1cc(Nc2nc(/C=C/c3cccc(Cl)c3)nc(N3CCN(C)CC3)n2)n[nH]1 [Example 11]
Found: > 90%

Lookup: Could you share what inhibition at 1 µM was measured for C/C=C/c1cc(Nc2nc(/C=C/c3ccccc3)nc(N3CCN(C)CC3)n2)n[nH]1 [Example 19] , tested on TrkA Kinase (Homo sapiens)?
Found: > 90%

Lookup: For TrkA Kinase (Homo sapiens), provide inhibition at 1 µM of Cc1ccc(/C=C/c2nc(Nc3cc(C)[nH]n3)nc(N3CCN(C)CC3)n2)cc1 [Example 9] please.
Found: > 90%

Lookup: GET /values?readout=inhibition at 1 µM&system=TrkA Kinase (Homo sapiens)&item= Cc1cc(Nc2nc(/C=C/c3ccc(Cl)cc3)nc(N3CCN(C)CC3)n2)n[nH]1 [Example 8]
Found: > 90%

Lookup: Short answer please: inhibition at 1 µM, TrkA Kinase (Homo sapiens), entry Cc1cc(Nc2nc(/C=C\c3ccccc3)nc(N3CCN(C)CC3)n2)n[nH]1 [Example 4]
Found: 50 to 90%

Lookup: Find inhibition at 1 µM (TrkA Kinase (Homo sapiens)) for the entry Cc1cc(Nc2nc(/C=C/c3ccccc3)nc(N3CCN(C)CC3)n2)n[nH]1 [Example 7]
Found: > 90%

Lookup: Under TrkA Kinase (Homo sapiens): inhibition at 1 µM value of Cc1cc(Nc2nc(C#Cc3ccccc3)nc(N3CCN(C)CC3)n2)n[nH]1 [Example 3] ?
Found: > 90%

Lookup: Request - read-out inhibition at 1 µM | tested on TrkA Kinase (Homo sapiens) | compound CN1CCN(c2nc(/C=C/c3ccccc3)nc(Nc3cc(-c4ccccc4)[nH]n3)n2)CC1 [Example 18]
Found: > 90%

Lookup: Given the entry Cc1cc(Nc2nc(/C=C/c3nccs3)nc(N3CCN(C)CC3)n2)n[nH]1 [Example 12] , what inhibition at 1 µM was observed with TrkA Kinase (Homo sapiens)?
Found: 50 to 90%

Lookup: Record lookup: for TrkA Kinase (Homo sapiens), what inhibition at 1 µM belongs to Cc1cc(Nc2nc(/C=C/c3ccccc3Cl)nc(N3CCN(C)CC3)n2)n[nH]1 [Example 10] ?
Found: > 90%

Lookup: Lab request: please report inhibition at 1 µM under test system TrkA Kinase (Homo sapiens) for Cc1cnc(Nc2nc(/C=C/c3ccccc3)nc(N3CCN(C)CC3)n2)s1 [Example 17]
Found: > 90%

====

Target: Ret kinase (Homo sapiens, UniProt P07949)
Construct: purchased Millipore (KinaseProfiler Service) / Reaction Biology Corp. (Kinase Hotspot)
Sequence (P07949 29-1114): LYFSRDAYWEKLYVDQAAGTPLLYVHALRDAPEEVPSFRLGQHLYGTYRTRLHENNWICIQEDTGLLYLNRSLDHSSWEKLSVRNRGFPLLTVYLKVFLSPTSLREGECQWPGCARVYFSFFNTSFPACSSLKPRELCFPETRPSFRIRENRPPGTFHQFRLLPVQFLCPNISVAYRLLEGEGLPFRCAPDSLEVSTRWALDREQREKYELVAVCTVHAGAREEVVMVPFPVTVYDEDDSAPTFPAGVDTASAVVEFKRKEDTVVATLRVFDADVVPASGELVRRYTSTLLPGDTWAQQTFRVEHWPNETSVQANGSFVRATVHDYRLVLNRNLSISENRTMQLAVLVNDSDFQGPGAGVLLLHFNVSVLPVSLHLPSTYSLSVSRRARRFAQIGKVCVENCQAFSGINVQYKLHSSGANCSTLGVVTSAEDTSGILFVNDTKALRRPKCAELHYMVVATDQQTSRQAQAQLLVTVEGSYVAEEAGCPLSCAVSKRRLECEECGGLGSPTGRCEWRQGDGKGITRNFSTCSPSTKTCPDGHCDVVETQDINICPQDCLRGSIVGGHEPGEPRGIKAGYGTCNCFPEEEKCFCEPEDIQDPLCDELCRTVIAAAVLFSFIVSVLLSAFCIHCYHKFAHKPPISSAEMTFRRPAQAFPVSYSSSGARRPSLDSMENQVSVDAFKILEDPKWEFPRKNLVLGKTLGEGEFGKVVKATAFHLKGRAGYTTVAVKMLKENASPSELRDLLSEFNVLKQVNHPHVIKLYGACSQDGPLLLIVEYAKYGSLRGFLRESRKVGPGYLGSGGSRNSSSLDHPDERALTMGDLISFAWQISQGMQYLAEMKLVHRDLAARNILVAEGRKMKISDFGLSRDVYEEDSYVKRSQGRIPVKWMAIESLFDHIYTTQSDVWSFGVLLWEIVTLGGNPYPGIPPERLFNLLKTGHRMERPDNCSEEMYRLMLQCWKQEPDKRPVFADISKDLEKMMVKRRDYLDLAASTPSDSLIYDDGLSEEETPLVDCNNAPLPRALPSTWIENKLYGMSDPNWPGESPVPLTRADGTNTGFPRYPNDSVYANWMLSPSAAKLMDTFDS
Test: Ret kinase assay (KinaseProfiler / Kinase Hotspot)
Assay type: biochemical
Settings: compound at 1 μM
Record form. Attribute: inhibition at 1 µM. Fill in for each entry.

Lookup: Returns the measured inhibition at 1 µM for the input molecule. Input: Cc1cc(Nc2nc(/C=C/c3ccccc3Cl)nc(N3CCN(C)CC3)n2)n[nH]1
Found: < 50%

Lookup: // lookup inhibition at 1 µM for Cc1cc(Nc2nc(/C=C/c3ccc(Cl)cc3)nc(N3CCN(C)CC3)n2)n[nH]1
Found: 50 to 90%

Lookup: Give its inhibition at 1 µM value. Item: Cc1cnc(Nc2nc(/C=C/c3ccccc3)nc(N3CCN(C)CC3)n2)s1
Found: < 50%

====

Target: Ret kinase (Homo sapiens, UniProt P07949)
Construct: purchased Millipore (KinaseProfiler Service) / Reaction Biology Corp. (Kinase Hotspot)
Assay: Ret kinase assay (KinaseProfiler / Kinase Hotspot)
Type: biochemical
Settings: compound at 1 μM
Measurement kind: inhibition at 1 µM

Lookup: Value lookup for inhibition at 1 µM; key = Cc1cc(Nc2nc(/C=C\c3ccccc3)nc(N3CCN(C)CC3)n2)n[nH]1
Found: < 50%

Lookup: Need inhibition at 1 µM of Cc1cc(Nc2nc(/C=C/c3ccccc3)nc(N3CCN(C)CC3)n2)n[nH]1 , thanks.
Found: 50 to 90%

Lookup: Bench note: what inhibition at 1 µM did Cc1cc(Nc2nc(/C=C/c3nccs3)nc(N3CCN(C)CC3)n2)n[nH]1 show?
Found: < 50%

Lookup: Query (compound): C/C=C/c1cc(Nc2nc(/C=C/c3ccccc3)nc(N3CCN(C)CC3)n2)n[nH]1 ; field requested: inhibition at 1 µM
Found: 50 to 90%

Lookup: Which inhibition at 1 µM reading was recorded for the compound Cc1ccc(/C=C/c2nc(Nc3cc(C)[nH]n3)nc(N3CCN(C)CC3)n2)cc1 ?
Found: 50 to 90%

Lookup: Entry CN1CCN(c2nc(/C=C/c3ccccc3)nc(Nc3cc(-c4ccccc4)[nH]n3)n2)CC1 : reported inhibition at 1 µM = ?
Found: 50 to 90%

Lookup: inhibition at 1 µM for Cc1cc(Nc2nc(/C=C/c3cccc(Cl)c3)nc(N3CCN(C)CC3)n2)n[nH]1 ?
Found: < 50%

Lookup: Name the reported inhibition at 1 µM value associated with the compound Cc1cc(Nc2nc(C#Cc3ccccc3)nc(N3CCN(C)CC3)n2)n[nH]1
Found: 50 to 90%
